- tested-on: NK2 (Homo sapiens, UniProt P21452)
- Sequence (P21452 whole entry): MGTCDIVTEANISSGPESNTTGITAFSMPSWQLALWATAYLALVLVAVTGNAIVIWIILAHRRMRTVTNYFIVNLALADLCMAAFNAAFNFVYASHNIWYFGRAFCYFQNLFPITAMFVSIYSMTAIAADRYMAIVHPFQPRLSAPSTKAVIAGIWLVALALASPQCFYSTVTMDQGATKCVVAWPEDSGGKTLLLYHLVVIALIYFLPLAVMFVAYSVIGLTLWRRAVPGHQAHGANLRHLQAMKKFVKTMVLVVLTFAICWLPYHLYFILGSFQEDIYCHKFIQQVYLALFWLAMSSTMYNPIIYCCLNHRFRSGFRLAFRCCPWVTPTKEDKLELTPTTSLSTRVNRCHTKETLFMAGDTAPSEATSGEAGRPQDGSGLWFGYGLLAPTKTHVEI
- protocol: Signal transduction (ST), intracellular Ca++ (FLIPR), NK2
- Assay type: cell-based
- cond: read-out: pIC50 NK2 (converted)
The label 1 (yes) is reserved for IC50 strictly under 3000 nM; 0 (no) covers values equal to or above it.

compound: COc1ccc(S(=O)(=O)N2CCC(N3CCN([C@H]4CCN(C(=O)c5cc(C(F)(F)F)cc(C(F)(F)F)c5)[C@H](Cc5ccccc5)C4)CC3)C2)cc1 (some centres unmarked)
assigned-category: 1 (yes)
//
compound: Cc1cccc(C(=O)N2CCC(N3CCN([C@H]4CCN(C(=O)c5cc(C(F)(F)F)cc(C(F)(F)F)c5)[C@H](Cc5ccccc5)C4)CC3)C2)c1C (some centres unmarked)
assigned-category: 0 (no)
//
compound: O=C(OCc1ccccc1C(=O)N1CCC(N2CCN([C@H]3CCN(C(=O)c4cc(C(F)(F)F)cc(C(F)(F)F)c4)[C@H](Cc4ccccc4)C3)CC2)C1)c1ccccc1 (some centres unmarked)
assigned-category: 1 (yes)
//
compound: Cc1onc(-c2c(Cl)cccc2Cl)c1C(=O)N1CCC(N2CCN([C@H]3CCN(C(=O)c4cc(C(F)(F)F)cc(C(F)(F)F)c4)[C@H](Cc4ccccc4)C3)CC2)C1 (some centres unmarked)
assigned-category: 0 (no)
//
compound: O=C(c1ccco1)N1CC[C@H](N2CCN([C@H]3CCN(C(=O)c4cc(C(F)(F)F)cc(C(F)(F)F)c4)[C@H](Cc4ccc(Cl)c(Cl)c4)C3)CC2)C1
assigned-category: 1 (yes)
//
compound: O=C(c1cc(C(F)(F)F)cc(C(F)(F)F)c1)N1CCC(N2CCN(C3CCN(S(=O)(=O)c4cc(CCOCc5ccccc5)cs4)C3)CC2)CC1Cc1ccccc1 (centres unmarked)
assigned-category: 1 (yes)
//
compound: N#CN=C(N1CCOCC1)N1CCC(N2CCN([C@H]3CCN(C(=O)c4cc(C(F)(F)F)cc(C(F)(F)F)c4)[C@H](Cc4ccccc4)C3)CC2)C1 (some centres unmarked)
assigned-category: 0 (no)
//
compound: O=C(c1cc(C(F)(F)F)cc(C(F)(F)F)c1)N1CC[C@H](N2CCN(C3CCN(S(=O)(=O)c4ccccc4O)C3)CC2)C[C@H]1Cc1ccccc1 (some centres unmarked)
assigned-category: 1 (yes)
//
compound: O=C(C1CCOC1)N1CCC(N2CCN(C3CCN(C(=O)c4cc(C(F)(F)F)cc(C(F)(F)F)c4)C(Cc4ccc(Cl)c(Cl)c4)C3)CC2)C1 (single isomer, unassigned) [Compound 290]
assigned-category: 1 (yes)
//
compound: COc1ccc(S(=O)(=O)N2CCC(N3CCN([C@H]4CCN(C(=O)c5cc(C(F)(F)F)cc(C(F)(F)F)c5)[C@H](Cc5ccccc5)C4)CC3)C2)s1 (some centres unmarked)
assigned-category: 1 (yes)
//
compound: O=C(c1cc(C(F)(F)F)cc(C(F)(F)F)c1)N1CCC(N2CCN(C3CCN(Cc4ccccc4)C3)CC2)CC1Cc1cc(Cl)cc(Cl)c1 (centres unmarked)
assigned-category: 0 (no)

###

- tested-on: NK1 (Homo sapiens)
- Sequence (P25103 whole entry): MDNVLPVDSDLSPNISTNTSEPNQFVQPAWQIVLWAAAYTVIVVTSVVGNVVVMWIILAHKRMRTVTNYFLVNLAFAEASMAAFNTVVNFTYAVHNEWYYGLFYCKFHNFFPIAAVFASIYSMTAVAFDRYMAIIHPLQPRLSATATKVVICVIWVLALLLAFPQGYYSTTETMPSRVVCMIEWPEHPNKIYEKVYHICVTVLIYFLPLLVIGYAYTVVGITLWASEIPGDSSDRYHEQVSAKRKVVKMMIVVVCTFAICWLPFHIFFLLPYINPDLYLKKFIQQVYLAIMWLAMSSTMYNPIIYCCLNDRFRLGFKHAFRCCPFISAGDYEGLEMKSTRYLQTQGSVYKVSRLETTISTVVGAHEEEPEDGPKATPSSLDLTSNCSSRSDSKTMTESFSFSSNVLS
- protocol: Signal transduction (ST), intracellular Ca++ (FLIPR), NK1 antagonistic activity
- Assay type: cell-based
- cond: read-out: pIC50 NK1 (converted)
The label Yes is reserved for IC50 strictly under 30 nM; No covers values equal to or above it.

compound: CC(C(=O)N1CCC(N2CCN([C@H]3CCN(C(=O)c4cc(C(F)(F)F)cc(C(F)(F)F)c4)[C@H](Cc4ccc(F)c(F)c4)C3)CC2)C1)c1ccccc1 (single isomer, unassigned) [Compound 233]
assigned-category: Yes
//
compound: Cn1cc(C(=O)N2CCC(N3CCN([C@H]4CCN(C(=O)c5cc(C(F)(F)F)cc(C(F)(F)F)c5)[C@H](Cc5ccccc5)C4)CC3)C2)ccc1=O (some centres unmarked) [Compound 29]
assigned-category: No
//
compound: O=C(C1CC1)N1CC[C@@H](N2CCN([C@H]3CCN(C(=O)c4cc(C(F)(F)F)cc(C(F)(F)F)c4)[C@H](Cc4ccc(Cl)c(Cl)c4)C3)CC2)C1 [Compound 263]
assigned-category: Yes
//
compound: O=C(c1cc(C(F)(F)F)cc(C(F)(F)F)c1)N1CCC(N2CCN(C3CCN(C(CO)c4ccsc4)C3)CC2)CC1Cc1ccccc1 (centres unmarked) [Compound 349]
assigned-category: No
//
compound: O=C(c1cc(C(F)(F)F)cc(C(F)(F)F)c1)N1CCC(N2CCN(C3CCN(CCCCO)C3)CC2)CC1Cc1ccc(Cl)c(Cl)c1 (centres unmarked) [Compound 393]
assigned-category: Yes

###

- tested-on: NK2 (Homo sapiens)
- protocol: Signal transduction (ST), intracellular Ca++ (FLIPR), NK2
- Type: cell-based
- cond: read-out: pIC50 NK2 (converted)
Listed here are compounds together with their documented IC50.

compound: COc1ccc(OC)c(S(=O)(=O)N2CCC(N3CCN([C@H]4CCN(C(=O)c5cc(C(F)(F)F)cc(C(F)(F)F)c5)[C@H](Cc5ccccc5)C4)CC3)C2)c1 (stereo partly drawn)
IC50 (nM): 2510
--
compound: O=C(c1sccc1CCO)N1CCC(N2CCN([C@H]3CCN(C(=O)c4cc(C(F)(F)F)cc(C(F)(F)F)c4)[C@H](Cc4ccccc4)C3)CC2)C1 (stereo partly drawn)
IC50 (nM): 3980
--
compound: O=C(c1cc(C(F)(F)F)cc(C(F)(F)F)c1)N1CC[C@H](N2CCN(C3CCN(S(=O)(=O)c4occc4CCOCc4ccccc4)C3)CC2)C[C@H]1Cc1ccccc1 (stereo partly drawn)
IC50 (nM): 1260
--
compound: O=C(c1cccs1)N1CC[C@@H](N2CCN([C@H]3CCN(C(=O)c4cc(C(F)(F)F)cc(C(F)(F)F)c4)[C@H](Cc4ccccc4)C3)CC2)C1
IC50 (nM): 3160
--
compound: O=C(C1CCCCN1)N1CCC(N2CCN(C3CCN(C(=O)c4cc(C(F)(F)F)cc(C(F)(F)F)c4)C(Cc4ccccc4)C3)CC2)C1 (stereo not drawn)
IC50 (nM): 7940
--
compound: O=C(C1CCCCN1C(=O)c1ccccc1Cl)N1CCC(N2CCN(C3CCN(C(=O)c4cc(C(F)(F)F)cc(C(F)(F)F)c4)C(Cc4ccccc4)C3)CC2)C1 (stereo not drawn)
IC50 (nM): 2000

###

- tested-on: UniProt:P29371
- Sequence (P29371 whole entry): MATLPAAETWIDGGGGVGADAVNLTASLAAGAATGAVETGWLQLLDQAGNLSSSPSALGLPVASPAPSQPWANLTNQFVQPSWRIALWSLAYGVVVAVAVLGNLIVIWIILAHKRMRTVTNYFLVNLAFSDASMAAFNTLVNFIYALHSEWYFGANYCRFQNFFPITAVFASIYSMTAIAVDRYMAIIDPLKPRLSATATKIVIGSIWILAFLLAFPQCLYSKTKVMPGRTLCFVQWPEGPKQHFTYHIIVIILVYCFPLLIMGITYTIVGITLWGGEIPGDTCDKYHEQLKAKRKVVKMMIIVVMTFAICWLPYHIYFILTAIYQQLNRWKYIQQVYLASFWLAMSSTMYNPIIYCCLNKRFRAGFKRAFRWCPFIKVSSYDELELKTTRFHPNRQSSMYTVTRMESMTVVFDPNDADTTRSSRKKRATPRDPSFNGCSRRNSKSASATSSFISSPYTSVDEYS
- protocol: Signal transduction (ST), intracellular Ca++ (FLIPR), NK3
- Format: cell-based
- cond: read-out: pIC50 NK3 (converted)
Listed here are compounds together with their documented IC50.

compound: O=C(C1CCCCC1)N1CCC(N2CCN(C3CCN(C(=O)c4cc(C(F)(F)F)cc(C(F)(F)F)c4)C(Cc4ccccc4)C3)CC2)C1 (single isomer, unassigned) [Compound 403]
tested-on: UniProt:P29371
IC50: 2510 nM
--
compound: O=C(c1cc(CCO)cs1)N1CCC(N2CCN([C@H]3CCN(C(=O)c4cc(C(F)(F)F)cc(C(F)(F)F)c4)[C@H](Cc4ccccc4)C3)CC2)C1 (some centres unmarked)
tested-on: UniProt:P29371
IC50: 1580 nM
--
compound: CC(C)(C)C(=O)N1CCCCC1C(=O)N1CCC(N2CCN([C@H]3CCN(C(=O)c4cc(C(F)(F)F)cc(C(F)(F)F)c4)[C@H](Cc4ccccc4)C3)CC2)C1 (some centres unmarked)
tested-on: UniProt:P29371
IC50: 1260 nM
--
compound: N#Cc1cccc(C(=O)N2CCC(N3CCN(C4CCN(C(=O)c5cc(C(F)(F)F)cc(C(F)(F)F)c5)C(Cc5ccccc5)C4)CC3)C2)c1 (single isomer, unassigned) [Compound 193]
tested-on: UniProt:P29371
IC50: 501 nM
--
compound: O=C(C1CC1)N1CCC(N2CCN(C3CCN(C(=O)c4cc(C(F)(F)F)cc(C(F)(F)F)c4)C(Cc4ccccc4)C3)CC2)C1 (single isomer, unassigned) [Compound 70]
tested-on: UniProt:P29371
IC50: 501 nM

###

- tested-on: NK1 (Homo sapiens)
- protocol: Signal transduction (ST), intracellular Ca++ (FLIPR), NK1 antagonistic activity
- Type: cell-based
- cond: read-out: pIC50 NK1 (converted)
Listed here are compounds together with their documented log10 of IC50.
experimental-readout: log10 of IC50 (log10 of the value in µM)

compound: CC1(C)OCC(CNC(=C[N+](=O)[O-])N2CCC(N3CCN([C@H]4CCN(C(=O)c5cc(C(F)(F)F)cc(C(F)(F)F)c5)[C@H](Cc5ccccc5)C4)CC3)C2)O1 (some centres unmarked)
observed-measurement: -1.60

compound: CCOCCn1c(CN2CCC(N3CCN([C@H]4CCN(C(=O)c5cc(C(F)(F)F)cc(C(F)(F)F)c5)[C@H](Cc5ccccc5)C4)CC3)C2)nc2ccccc21 (some centres unmarked)
observed-measurement: -0.90

compound: Cc1nnsc1C(=O)N1CCC(N2CCN(C3CCN(C(=O)c4cc(C(F)(F)F)cc(C(F)(F)F)c4)C(Cc4ccc(F)c(F)c4)C3)CC2)C1 (single isomer, unassigned) [Compound 236]
observed-measurement: -2.40

compound: O=C(C1CCOC1)N1CCC(N2CCN(C3CCN(C(=O)c4cc(C(F)(F)F)cc(C(F)(F)F)c4)C(Cc4ccc(Cl)c(Cl)c4)C3)CC2)C1 (single isomer, unassigned) [Compound 290]
observed-measurement: -2.40

compound: O=C(c1sccc1CO)N1CCC(N2CCN([C@H]3CCN(C(=O)c4cc(C(F)(F)F)cc(C(F)(F)F)c4)[C@H](Cc4ccccc4)C3)CC2)C1 (some centres unmarked)
observed-measurement: -2.00

compound: O=C(c1ccoc1)N1CCC(N2CCN(C3CCN(C(=O)c4cc(C(F)(F)F)cc(C(F)(F)F)c4)C(Cc4ccc(F)c(F)c4)C3)CC2)C1 (centres unmarked) [Compound 226]
observed-measurement: -2.20

compound: O=C(C1CCOC1)N1CCC(N2CCN(C3CCN(C(=O)c4cc(C(F)(F)F)cc(C(F)(F)F)c4)C(Cc4ccc(F)c(F)c4)C3)CC2)C1 (single isomer, unassigned) [Compound 281]
observed-measurement: -2.30

compound: O=C(C1CCCCC1)N1CCC(N2CCN([C@H]3CCN(C(=O)c4cc(C(F)(F)F)cc(C(F)(F)F)c4)[C@H](Cc4ccccc4)C3)CC2)C1 (some centres unmarked)
observed-measurement: -2.00

compound: O=C(C1CCOC1)N1CCC(N2CCN(C3CCN(C(=O)c4cc(C(F)(F)F)cc(C(F)(F)F)c4)C(Cc4ccc(F)cc4)C3)CC2)C1 (centres unmarked)
observed-measurement: -2.00

compound: CC(C)(C)OCC(=O)N1CCC(N2CCN([C@H]3CCN(C(=O)c4cc(C(F)(F)F)cc(C(F)(F)F)c4)[C@H](Cc4ccccc4)C3)CC2)C1 (some centres unmarked)
observed-measurement: -1.80

compound: O=C(c1ccc(CCO)s1)N1CCC(N2CCN(C3CCN(C(=O)c4cc(C(F)(F)F)cc(C(F)(F)F)c4)C(Cc4ccccc4)C3)CC2)C1 (centres unmarked)
observed-measurement: -1.90
